# assayedSystem: T1, human complement C3b protein (human, UniProt P01024 23-667; P01024 749-1663)
# T1 construct: Purified plasma C3b (Complement Technology, Quidel); Depending on the assay it was captured by an anti-C3d antibody, coated, biotinylated or coupled to beads; also called human C3b; huC3b
# T1 sequence (P01024 23-667 P314L, chain 1 of 2): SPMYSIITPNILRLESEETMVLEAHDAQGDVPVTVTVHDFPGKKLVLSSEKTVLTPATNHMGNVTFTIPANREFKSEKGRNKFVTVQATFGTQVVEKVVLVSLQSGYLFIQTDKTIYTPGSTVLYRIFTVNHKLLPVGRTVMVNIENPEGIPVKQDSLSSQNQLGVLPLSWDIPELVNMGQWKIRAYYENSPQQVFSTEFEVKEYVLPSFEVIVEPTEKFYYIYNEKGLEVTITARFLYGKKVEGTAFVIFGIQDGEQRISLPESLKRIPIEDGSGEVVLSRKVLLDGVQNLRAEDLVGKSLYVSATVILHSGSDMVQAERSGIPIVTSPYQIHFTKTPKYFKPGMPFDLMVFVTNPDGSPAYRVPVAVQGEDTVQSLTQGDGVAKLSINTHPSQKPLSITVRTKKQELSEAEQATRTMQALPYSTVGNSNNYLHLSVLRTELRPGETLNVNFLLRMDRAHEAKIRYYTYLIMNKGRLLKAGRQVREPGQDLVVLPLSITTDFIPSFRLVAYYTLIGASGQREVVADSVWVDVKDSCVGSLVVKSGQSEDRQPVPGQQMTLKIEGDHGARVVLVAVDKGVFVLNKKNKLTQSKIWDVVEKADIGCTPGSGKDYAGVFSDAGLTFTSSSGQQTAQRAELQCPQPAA
# T1 sequence (P01024 749-1663, chain 2 of 2): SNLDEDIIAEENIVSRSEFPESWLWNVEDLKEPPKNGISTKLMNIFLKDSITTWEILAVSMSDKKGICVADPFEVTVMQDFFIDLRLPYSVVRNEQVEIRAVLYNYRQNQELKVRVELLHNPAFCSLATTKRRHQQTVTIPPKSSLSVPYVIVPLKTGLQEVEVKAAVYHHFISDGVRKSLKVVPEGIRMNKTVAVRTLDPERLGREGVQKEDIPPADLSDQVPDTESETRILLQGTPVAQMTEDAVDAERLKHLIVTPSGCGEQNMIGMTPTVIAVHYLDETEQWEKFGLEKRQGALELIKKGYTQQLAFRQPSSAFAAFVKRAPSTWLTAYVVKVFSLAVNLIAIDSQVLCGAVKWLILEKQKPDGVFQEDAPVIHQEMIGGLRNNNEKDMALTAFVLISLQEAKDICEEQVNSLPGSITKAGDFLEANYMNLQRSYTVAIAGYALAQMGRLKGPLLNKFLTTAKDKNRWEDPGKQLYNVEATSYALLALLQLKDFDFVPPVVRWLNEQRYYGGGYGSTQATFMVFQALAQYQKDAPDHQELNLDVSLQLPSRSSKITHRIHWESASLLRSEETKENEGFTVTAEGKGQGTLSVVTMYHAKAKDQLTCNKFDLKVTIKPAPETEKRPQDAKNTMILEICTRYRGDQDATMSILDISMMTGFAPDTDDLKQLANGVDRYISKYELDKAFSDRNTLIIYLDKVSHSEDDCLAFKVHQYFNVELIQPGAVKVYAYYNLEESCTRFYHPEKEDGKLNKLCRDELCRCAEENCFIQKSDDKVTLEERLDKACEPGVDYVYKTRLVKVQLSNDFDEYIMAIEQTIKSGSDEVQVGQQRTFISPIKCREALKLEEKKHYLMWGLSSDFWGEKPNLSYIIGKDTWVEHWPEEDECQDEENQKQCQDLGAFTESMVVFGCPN
# experimentNotes: SPR (Biacore), C3b captured by anti-C3d antibody, Fab as analyte
observationType: Kd
Write down the value, and be sure its unit follows.

>  <binder>
MOR09397 Fab (Fab, V domains shown, also called Fab 9397) VH: QVQLVESGGGLVQPGGSLRLSCAASGFTFSSYWMTWVRQAPGKGLEWVSSIKIKPDGYAASVKGRFTISRDNSKNTLYLQMNSLRAEDTAVYYCARLFYQYFARMDYWGQGTLVTVSS VL: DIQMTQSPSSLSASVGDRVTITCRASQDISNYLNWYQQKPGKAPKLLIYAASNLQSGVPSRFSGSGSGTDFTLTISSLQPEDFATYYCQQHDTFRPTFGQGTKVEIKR

>  <observationType>
Kd

>  <assayResult>
7 pM

$$$$

Ask | Determine from records and report Kd for MOR09398 Fab (Fab, V domains shown, also called Fab 9398) VH: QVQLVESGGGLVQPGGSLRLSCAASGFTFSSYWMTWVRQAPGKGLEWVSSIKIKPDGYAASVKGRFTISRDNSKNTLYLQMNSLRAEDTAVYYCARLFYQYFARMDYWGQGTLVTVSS VL: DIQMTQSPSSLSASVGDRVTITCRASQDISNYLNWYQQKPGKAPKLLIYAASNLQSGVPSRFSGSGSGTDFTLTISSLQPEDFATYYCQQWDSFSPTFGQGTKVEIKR
Reply | 3 pM
